Protocol notes: Bioavailability in rat (Sprague-Dawley) (dose 1 mg/kg i.v. and 2 mg/kg p.o.)
Assay type: ADME, organism-based
Condition notes: in vivo, po
Measured bioavailability accompanies every entry in the list below.

Compound smiles | Uom | Value comparator | bioavailability
COc1ccccc1-c1ccc(C[C@H](NC(=O)C2(c3cccnc3)CCCC2)C(=O)O)cc1 | % | = | 35
COc1ccccc1-c1ccc(C[C@H](NC(=O)C2(c3ccccn3)CCCC2)C(=O)O)cc1 | % | < | 1
COc1ccccc1-c1ccc(C[C@H](NC(=O)C2(c3cccnc3)CCOCC2)C(=O)O)cc1 | % | < | 1
COc1ccccc1-c1ccc(C[C@H](NC(=O)C2(c3ccc(O)nc3)CCCC2)C(=O)O)cc1 | % | = | 1
COc1ccccc1-c1ccc(C[C@H](NC(=O)C(C)(C)c2ccccc2)C(=O)O)cc1 | % | = | 94
COc1ccccc1-c1ccc(C[C@H](NC(=O)C2(c3cccnc3)CCCCC2)C(=O)O)cc1 | % | = | 6
COc1ccccc1-c1ccc(C[C@H](NC(=O)C2(c3ccncc3)CCCC2)C(=O)O)cc1 | % | = | 17
COc1ccccc1-c1ccc(C[C@H](NC(=O)C2(c3ccccc3)CCCC2)C(=O)O)cc1 | % | = | 55
COc1ccccc1-c1ccc(C[C@H](NC(=O)C2(c3cccnc3C)CCCC2)C(=O)O)cc1 | % | = | 11
COc1ccccc1-c1ccc(C[C@H](NC(=O)C2(c3cnccc3C)CCCC2)C(=O)O)cc1 | % | = | 1
COc1ccccc1-c1ccc(C[C@H](NC(=O)C2(c3ccc(C)nc3)CCCC2)C(=O)O)cc1 | % | = | 12
